# systemUnderTest: Gal(b1-4)GlcNAc(b1-3)Gal(b1-4)GlcNAc(b1-3)[Gal(b1-4)GlcNAc(b1-3)Gal(b1-4)GlcNAc(b1-6)]GalNAc
# assayOverview: glycan array binding signal (z-score within array); higher = stronger binding
# studyConditions: glycan notation: IUPAC condensed, linker removed
Shown is part of a subset that was picked to be rich in the strongest signals.

- binder: "Actd5 (Actinidia), P84527 (protein) ISSCNGPCRDLNDCDGQLICIKGKCNDDPQVGTHICRGTTHSHQPGGCKPSGTLTCRGKSYPTYDCSPPVTSSTPAKLTNNDFSEGGDDGGPSECDESYHNNNERIVALSTGWYNGGSRCGKMIRITASNGKSVSAKVVDECDSRHGCDKEHAGQPPCRNNIVDGSNAVWSALGLDKNVGVVDITWSMA"
  glycan array binding signal (z-score): 2.99
- binder: "DC-Sign-R (Homo sapiens), Q9H2X3 (protein) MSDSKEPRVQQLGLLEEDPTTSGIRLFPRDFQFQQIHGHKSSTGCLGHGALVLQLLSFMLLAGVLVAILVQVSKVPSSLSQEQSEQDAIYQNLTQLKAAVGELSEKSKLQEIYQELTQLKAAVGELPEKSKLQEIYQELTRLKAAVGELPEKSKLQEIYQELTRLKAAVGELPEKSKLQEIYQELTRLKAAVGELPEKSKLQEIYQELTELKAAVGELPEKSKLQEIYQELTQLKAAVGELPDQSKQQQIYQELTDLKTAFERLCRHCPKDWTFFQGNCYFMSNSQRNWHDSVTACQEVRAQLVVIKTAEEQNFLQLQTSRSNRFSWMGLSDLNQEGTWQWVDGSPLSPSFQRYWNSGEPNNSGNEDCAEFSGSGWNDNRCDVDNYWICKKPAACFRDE"
  glycan array binding signal (z-score): 0.59
- binder: "AAL (Agrocybe aegerita), Q6WY08 (protein) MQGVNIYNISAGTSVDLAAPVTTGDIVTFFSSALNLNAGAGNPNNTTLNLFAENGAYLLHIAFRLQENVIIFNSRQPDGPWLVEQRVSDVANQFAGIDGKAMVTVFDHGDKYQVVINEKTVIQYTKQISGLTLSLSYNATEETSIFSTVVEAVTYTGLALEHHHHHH"
  glycan array binding signal (z-score): -0.125
- binder: "AT1G15820(NC) (Arabidopsis thaliana) (protein) MAMAVSGAVLSGLGSSFLTGGKRGATALASGVGDAIAPFSFGSLLGTQLLLMGWVESKRWVDFFNPDSQSVEWATPWSKTAENFANYTGDQGYPGGRFFDPLGLAGKNRDGVYEPDFEKLERLKLAEIKHSRLAMVAMLIFYFEAGQGKTPLGALGL"
  glycan array binding signal (z-score): 4.39
